Test system: MCF7 breast
Test: NCI-60 one-dose screen, 48 h (100 = growth as untreated, 0 = no growth, -100 = all killed)
Details: 10 µM unless noted
The panel holds about 83,000 compounds, 20% with a hit somewhere; the sample as a whole holds those more often.
Listing: growth of selected compounds
All answers are understood in %, so give the number only.

Worked examples follow.
compound: CCCCCC1CCCCN1C(=O)OCC (configuration not stated)
unit-string: %
growth: 99.3

compound: CCCCCCCC(=O)SCC/C=C/[C@@H]1CC(=O)NCc2cccc(n2)CN(Cc2ccc3ccccc3c2)CC(=O)N[C@@H](C(C)C)C(=O)O1
unit-string: %
growth: 26.5

compound: COc1ccc(-c2nc3ncccn3c2-c2nc3ccc(Br)cc3[nH]2)cc1
unit-string: %
growth: 96.7

compound: CCCCn1c(-c2ccc(O)cc2)cn2c3c(=O)[nH]c(=O)n(C)c3nc12
unit-string: %
growth: 41.7

# growth (compound: N#Cc1c(-c2ccco2)nc2c(c(-c3ccccc3)nn2-c2ccccc2)c1-c1ccc(O)cc1 ) is 47.3

# growth (compound: CC(C)(C)n1cc(-c2ccnc(NCCCNS(=O)(=O)c3ccc(Cl)cc3)c2)c(-c2cccc(F)c2)n1 ) is 60.5

----------
Tested on: OVCAR-4 ovarian
Experiment: NCI-60 one-dose screen, 48 h
Conditions: 10 µM unless noted
The panel holds about 83,000 compounds, 20% with a hit somewhere; the sample as a whole holds those more often. The source made the active and inactive calls. The calls were made as follows: active = growth percent below 10; inactive = the rest.
Give your call using only these classes: active, inactive

sample-smiles: C=C1C(=O)O[C@H]2[C@H]1CC/C(COC(=O)N[C@H](Cc1c[nH]c3ccccc13)C(=O)OC)=C\CC[C@@]1(C)O[C@@H]21
assigned-class: inactive
--
sample-smiles: Nc1c(C(=O)Nc2cccc(Cl)c2)sc2ncc(Cl)cc12
assigned-class: active
--
sample-smiles: O=[N+]([O-])c1cc(S(=O)(=O)c2ccc(F)c([N+](=O)[O-])c2)ccc1F
assigned-class: inactive

Shift focus to the following entry.
Incoming: Identify the outcome logged in this assay for the compound shown: CC(C)=CCC[C@](C)(O)[C@H]1CC[C@]2(C)[C@@H]1CC[C@@H]1[C@@]3(C)C/C(=C/c4cccc([N+](=O)[O-])c4)C(=O)C(C)(C)[C@@H]3CC[C@]12C
Outgoing: inactive

----------
Tested on: CCRF-CEM leukemia
Experiment: NCI-60 one-dose screen, 48 h
Conditions: 10 µM unless noted
This is part of a sample that, as a whole, favours compounds with a hit. Of some 83,000 tested, about 20% had one in any assay. Calls of active or inactive are those of the source. Rule for the calls: active = growth percent below 10; inactive = the rest.
Give your call using only these classes: active, inactive

Take a look at these entries with their results.
compound: Cc1cc(N=O)cc(C(C)(C)C)c1O
system-name: CCRF-CEM leukemia
assigned-class: inactive
--
compound: C[C@H]1[C@H]2C3=CC[C@@H]4[C@@]5(C)C/C(=C/c6ccco6)C(=O)C(C)(C)[C@@H]5CC[C@@]4(C)[C@]3(C)CC[C@@]2(C(=O)N2CCOCC2)CC[C@@H]1C
system-name: CCRF-CEM leukemia
assigned-class: inactive
--
compound: Clc1ccc2c(NCCNc3nc(-c4ccccc4)cc(-c4ccccc4)n3)ccnc2c1
system-name: CCRF-CEM leukemia
assigned-class: active

Incoming: Identify the outcome logged in this assay for the compound shown: CCC(CC)C(=O)OC(C)COc1ccc(C(C)(C)C)cc1 (configuration not stated)
Outgoing: inactive

Incoming: Identify the outcome logged in this assay for the compound shown: Cc1ccc2oc(=O)cc(-c3sc(N4CCCCC4)nc3-c3ccccc3)c2c1
Outgoing: inactive

Incoming: Identify the outcome logged in this assay for the compound shown: COc1ccc(-c2nc(Nc3ccc(-c4nc5ccccc5[nH]4)cc3)nc(N3CCOCC3)n2)cc1
Outgoing: active

Incoming: Identify the outcome logged in this assay for the compound shown: O=C(O[C@@H]1Cc2c(O)cc(O)cc2O[C@@H]1c1cc(O)c(O)c(O)c1)c1cc(O)c2c(c1)OCO2
Outgoing: inactive

Incoming: Identify the outcome logged in this assay for the compound shown: C=C1C(=O)O[C@H]2[C@H]1CC/C(COC(=O)N[C@H](Cc1c[nH]c3ccccc13)C(=O)OC)=C\CC[C@@]1(C)O[C@@H]21
Outgoing: active

Incoming: Identify the outcome logged in this assay for the compound shown: CC(C)=CCC/C(C)=C/CC/C(C)=C/CSC[C@H](NC(=O)CCCCCN1CCN(C)CC1)C(=O)NC1CCCCCC1
Outgoing: inactive

Incoming: Identify the outcome logged in this assay for the compound shown: CCCCCCCC(=O)SCC/C=C/[C@@H]1CC(=O)NCc2cccc(n2)CN(Cc2ccc(Cl)cc2)CC(=O)N[C@@H](C(C)C)C(=O)O1
Outgoing: active

Incoming: Identify the outcome logged in this assay for the compound shown: CC(C)(C)c1nc(-c2ccc(O)c(O)c2)cs1
Outgoing: inactive

Incoming: Identify the outcome logged in this assay for the compound shown: COc1cc(-c2cc3ncccc3c3[nH]c(=O)c4cccnc4c23)cc(OC)c1OC
Outgoing: inactive

Incoming: Identify the outcome logged in this assay for the compound shown: COc1ccc(-c2c(-c3nc4ccc(N5CCOCC5)cc4[nH]3)[nH]c(C)c2C(C)=O)cc1
Outgoing: inactive

Incoming: Identify the outcome logged in this assay for the compound shown: C=C(C)[C@@H]1CC[C@]2(C(=O)N3CCN(C)CC3)CC[C@]3(C)[C@H](CC[C@@H]4[C@@]5(C)C/C(=C/c6ccc(C(F)(F)F)cc6)C(=O)C(C)(C)[C@@H]5CC[C@]43C)[C@@H]12
Outgoing: inactive

Incoming: Identify the outcome logged in this assay for the compound shown: O=C(c1ccccc1)C(CN1CCOCC1)c1ccccc1 (configuration not stated)
Outgoing: active

Incoming: Identify the outcome logged in this assay for the compound shown: Fc1ccc2c(c1)c(-c1nc(-c3c[nH]c4ncccc34)cs1)cn2CCCN1CCCCC1
Outgoing: active

Incoming: Identify the outcome logged in this assay for the compound shown: Nc1c2c(nc3ccc(Br)cc13)CC(c1ccccc1)CC2=O (configuration not stated)
Outgoing: inactive

Cited source for all entries: PubChem BioAssay (NCI)
